molecular target: HLA-A*24:02; experiment: IEDB peptide-MHC binding, purified MHC/direct/fluorescence; filed as Kd, often an IC50 or EC50 that approximates it; bounds were set here for any values at or beyond the usual limits of such assays; settings: source organism: Giardia lamblia ATCC 50803
pKd: −log10 of the molar value.
recorded-endpoint: pKd

Query: Please look up its pKd: `HCIDKTPGL`
Response: ≤ 4.70

* * *

molecular target: HLA-A*26:01; assay: IEDB peptide-MHC binding, purified MHC/direct/fluorescence; filed as Kd, often an IC50 or EC50 that approximates it; bounds were set here for any values at or beyond the usual limits of such assays; settings: source organism: Salmonella enterica
recorded-endpoint: Kd

Query: Report Kd for `LLQGVPFHV` tested on HLA-A*26:01.
Response: ≥ 20 µM

* * *

target: HLA-B*07:02; assay: IEDB peptide-MHC binding, purified MHC/competitive/fluorescence; filed as Kd, often an IC50 or EC50 that approximates it; bounds were set here for any values at or beyond the usual limits of such assays; settings: source organism: Variola virus
recorded-endpoint: Kd (nM)
Write the value in nM as a bare number.

Query: Report Kd for `IFLIITKVF` tested on HLA-B*07:02.
Response: 3000

* * *

biological target: HLA-A*02:03; assay: IEDB peptide-MHC binding, purified MHC/competitive/radioactivity; filed as Kd, often an IC50 or EC50 that approximates it; bounds were set here for any values at or beyond the usual limits of such assays; conditions: source organism: Lassa virus GA391
recorded-endpoint: pKd
// pKd: -log10(molar conc.)

Query: Please look up its pKd: `LLHGLDFSEV`
Response: 8.45

* * *

molecular target: HLA-A*69:01; assay: IEDB peptide-MHC binding, purified MHC/direct/fluorescence; filed as Kd, often an IC50 or EC50 that approximates it; bounds were set here for any values at or beyond the usual limits of such assays; conditions: source organism: Vibrio vulnificus
recorded-endpoint: pKd
// pKd: -log10(molar conc.)

Query: Please look up its pKd: `KLTSYSAGL`
Response: 4.82

* * *

target: HLA-B*27:05; experiment: IEDB peptide-MHC binding, purified MHC/direct/fluorescence; filed as Kd, often an IC50 or EC50 that approximates it; bounds were set here for any values at or beyond the usual limits of such assays; details: source organism: Vibrio parahaemolyticus
pKd: −log10 of the molar value.
recorded-endpoint: pKd

DTWHGFKNM
≤ 4.70

Consider now this further sequence.
Query: Please look up its pKd: `LVAPHMAMM`
Response: ≤ 4.70

* * *

molecular target: HLA-A*02:01; assay: IEDB peptide-MHC binding, purified MHC/direct/fluorescence; filed as Kd, often an IC50 or EC50 that approximates it; bounds were set here for any values at or beyond the usual limits of such assays; settings: source organism: Influenza A virus (A/swine/Hong Kong/5190/99(H3N2))
pKd: −log10 of the molar value.
recorded-endpoint: pKd

Query: Report pKd for `GYMFESKSM` tested on HLA-A*02:01.
Response: ≤ 4.70

* * *

molecular target: HLA-B*15:17; assay: IEDB peptide-MHC binding, purified MHC/competitive/fluorescence; filed as Kd, often an IC50 or EC50 that approximates it; bounds were set here for any values at or beyond the usual limits of such assays; settings: source organism: Hepatovirus A
recorded-endpoint: pKd
// pKd: -log10(molar conc.)

Query: Please look up its pKd: `YMYAVSGAL`
Response: 6.74

* * *

target: HLA-A*33:01; test: IEDB peptide-MHC binding, purified MHC/competitive/radioactivity; filed as Kd, often an IC50 or EC50 that approximates it; bounds were set here for any values at or beyond the usual limits of such assays; conditions: source organism: SARS coronavirus Tor2
recorded-endpoint: pKd
// pKd: -log10(molar conc.)

TTIKPVSYK
6.84
LLNKEMYLK
5.19

Query: Please look up its pKd: `WLSYFVASFR`
Response: 7.87

* * *

Reported IC50 values are given for each entry in this list.
biological target: HLA-A*24:02; assay: IEDB peptide-MHC binding, purified MHC/competitive/fluorescence; bounds were set here for any values at or beyond the usual limits of such assays; conditions: source organism: Sudan ebolavirus
Output should be the measured figure followed by the unit it is expressed in.

See these solved cases before continuing.
EGIYTEGLM
15 µM
TTGRLIWTL
0.309 µM

Consider now this further sequence.
Query: Please look up its IC50: `PTLTTPENI`
Response: 53.7 µM

* * *

molecular target: HLA-B*57:01; assay: IEDB peptide-MHC binding, purified MHC/competitive/fluorescence; filed as Kd, often an IC50 or EC50 that approximates it; bounds were set here for any values at or beyond the usual limits of such assays; settings: source organism: Burkholderia pseudomallei 668
pKd: −log10 of the molar value.
recorded-endpoint: pKd

Query: Please look up its pKd: `ILFDRLPIA`
Response: ≤ 4.70

* * *

biological target: HLA-C*03:03; assay: IEDB peptide-MHC binding, purified MHC/direct/fluorescence; filed as Kd, often an IC50 or EC50 that approximates it; bounds were set here for any values at or beyond the usual limits of such assays; conditions: source organism: Mycobacterium tuberculosis variant bovis BCG str. Pasteur 1173P2
recorded-endpoint: Kd

Query: Please look up its Kd: `FLLDGGAPF`
Response: ≤ 1 nM

* * *

molecular target: HLA-A*11:01; test: IEDB peptide-MHC binding, purified MHC/competitive/radioactivity; filed as Kd, often an IC50 or EC50 that approximates it; bounds were set here for any values at or beyond the usual limits of such assays; conditions: source organism: Vaccinia virus WR
pKd: −log10 of the molar value.
Please mark 1 if the recorded pKd is equal to or greater than 6, and -1 if it falls below.

Some solved entries appear below for comparison.
IINFTISMR
1
GLILFVLALY
-1
LAELLEMKY
-1
KINSVKYYGR
1
KIMSIGFEAR
1

Query: Has `YVMNIERQDY` a recorded pKd greater than or equal to 6?
Response: -1

Query: Has `RVAVNKSNK` a recorded pKd greater than or equal to 6?
Response: 1

Query: Has `ILSKWHTSAR` a recorded pKd greater than or equal to 6?
Response: -1

Query: Has `SSYIDFENTK` a recorded pKd greater than or equal to 6?
Response: 1

* * *

target: HLA-A*69:01; assay: IEDB peptide-MHC binding, purified MHC/direct/fluorescence; filed as Kd, often an IC50 or EC50 that approximates it; bounds were set here for any values at or beyond the usual limits of such assays; settings: source organism: Mammarenavirus lassaense
recorded-endpoint: pKd
// pKd: -log10(molar conc.)

Query: Report pKd for `FVFSTSFYL` tested on HLA-A*69:01.
Response: 8.92

* * *

biological target: HLA-B*53:01; assay: IEDB peptide-MHC binding, purified MHC/competitive/radioactivity; filed as Kd, often an IC50 or EC50 that approximates it; bounds were set here for any values at or beyond the usual limits of such assays; conditions: source organism: Triticum aestivum
recorded-endpoint: pKd
// pKd: -log10(molar conc.)

Query: Please look up its pKd: `YPQPQLPY`
Response: 5.87

* * *

molecular target: HLA-A*02:50; assay: IEDB peptide-MHC binding, purified MHC/competitive/fluorescence; filed as Kd, often an IC50 or EC50 that approximates it; bounds were set here for any values at or beyond the usual limits of such assays; conditions: source organism: Vibrio vulnificus CMCP6
pKd: −log10 of the molar value.
recorded-endpoint: pKd

Query: Please look up its pKd: `KLTSYSAGL`
Response: ≥ 10.00

* * *

biological target: HLA-A*02:02; assay: IEDB peptide-MHC binding, purified MHC/competitive/radioactivity; filed as Kd, often an IC50 or EC50 that approximates it; bounds were set here for any values at or beyond the usual limits of such assays; details: source organism: Lassa virus Josiah
recorded-endpoint: Kd
Output should be the measured figure followed by the unit it is expressed in.

Query: Report Kd for `FVFSTSFYL` tested on HLA-A*02:02.
Response: 1.5 nM

* * *

molecular target: HLA-B*27:05; test: IEDB peptide-MHC binding, purified MHC/direct/fluorescence; filed as Kd, often an IC50 or EC50 that approximates it; bounds were set here for any values at or beyond the usual limits of such assays; conditions: source organism: Influenza A virus (A/swine/Bakum/5/95(H1N1))
recorded-endpoint: Kd

Query: Please look up its Kd: `RGINDRNFW`
Response: ≥ 20 µM

* * *

target: HLA-B*46:01; assay: IEDB peptide-MHC binding, purified MHC/competitive/fluorescence; filed as Kd, often an IC50 or EC50 that approximates it; bounds were set here for any values at or beyond the usual limits of such assays; details: source organism: Clostridium botulinum B str. Eklund 17B (NRP)
recorded-endpoint: Kd (nM)
Write the value in nM as a bare number.

Query: Please look up its Kd: `FFKDGMAEV`
Response: 398

* * *

molecular target: HLA-A*02:01; experiment: IEDB peptide-MHC binding, purified MHC/direct/fluorescence; filed as Kd, often an IC50 or EC50 that approximates it; bounds were set here for any values at or beyond the usual limits of such assays; details: source organism: Zaire ebolavirus
recorded-endpoint: Kd
Output should be the measured figure followed by the unit it is expressed in.

Query: Please look up its Kd: `FLYDRLAST`
Response: 2.2 nM
